system: HT29 colon; assay: NCI tumour cell line growth inhibition, 48 h
Observation type: TGI

For orientation, consider the following solved cases.
CS(=O)(=O)Nc1cncc(-c2ccc3ncnc(NCc4ccccc4)c3c2)c1 ... 30 µM
C/C(=N\N=C1/C(=O)Nc2ccc(Cl)cc21)c1ccc2c(c1)Nc1ccccc1S2 ... 17.6 µM
CCCCSc1nc(Nc2ccc(/C(C)=N/NC(N)=S)cc2)c(C#N)c(-c2ccc(F)cc2)n1 ... > 100 µM

Attention now shifts to the item below.
Would you mind telling me what TGI value was observed for COc1ccccc1[C@H]1C(C(=O)c2ccc(O)cc2)C2(N[C@@H]1c1ccccc1)C(=O)Nc1ccc(Br)cc12 (some centres undefined) ?
17.6 µM

====

system: MDA-MB-468 breast; test: NCI tumour cell line growth inhibition, 48 h
Listed here: items and their measured TGI.

For orientation, consider the following solved cases.
C=C1CC2C3C=C(C)C4=CC(=O)CC[C@]4(C)C3CC[C@]2(C)[C@@]1(OC(C)=O)C(C)=O (stereo partly drawn) ... > 100 µM
O=C1NC(=NCCc2ccccn2)S/C1=C\c1ccc2ncccc2c1 ... > 25 µM

Attention now shifts to the item below.
Would you mind telling me what TGI value was observed for "C=CCOC(=O)Nc1cccn([C@H](CC(C)C)C(=O)NCCC(C)C)c1=O" ?
> 100 µM

====

test system: MDA-MB-468 breast; assay: NCI tumour cell line growth inhibition, 48 h; in the data active = GI50 below about 0.43 µM; inactive = the rest
Residues, ends and D or L forms follow the SMILES beside them. *: point of attachment. Cbz = O=C(OCc1ccccc1)*
Tick one outcome: True for active, False for inactive

The following molecules have reported results that may help.
CC(C)C[C@@H](C=O)NC(=O)[C@H](CC(C)C)NC(=O)[C@H](CC(C)C)NC(=O)OCc1ccccc1 (Cbz-Leu-Leu-Leu-aldehyde) ... True
C=CC(=O)N1CC[C@H](n2nc(C#Cc3cc(OC)cc(OC)c3)c3c(N)ncnc32)C1 ... False
CS(=O)(=O)Nc1cncc(-c2ccc3ncnc(NCc4ccccc4)c3c2)c1 ... False

Look up the recorded call for O=C1CC(N2C(=O)/C(=C/C(Cl)=C\c3ccc([N+](=O)[O-])cc3)SC2=S)C(=O)N1c1ccc(O)cc1 (centres undefined) in this test.
False
